Tested on: velvetleaf (Abutilon theophrasti)
Assay: Test G Pre-Emergence Protocol
Assay type: in vivo
Details: Abutilon theophrasti, pre-emergence, 312 h, 15.625 g ai/ha, evaluated after 13 days, read-out: Velvetleaf damage rating (100=total damage to plant; 0=no damage to plant)
Source text: Seeds of corn (Zea mays), giant foxtail (Setaria faberi), barnyardgrass (Echinochloa crus-galli), ivy-leaved morning glory (Ipomoea hederacea), redroot pigweed (Amaranthus retroflexus) and velvetleaf (Abutilon theophrasti) were sown in standard soil in pots. […]
OBSERVABLE: pest or weed control at 15.625 g/ha (%)
Write it as a number; the unit % goes unstated.

Worked cases, pest or weed control at 15.625 g/ha given:
CN1CC(C2CCN=C(C(C)(C)C)N2)C(C(=O)Nc2ccc(F)c(F)c2F)C1=O (stereo not drawn) : 0
Cc1cc([C@@H]2CN(C)C(=O)[C@H]2C(=O)Nc2cccc(F)c2F)cnc1Cl (racemic) : 0
Cc1c(F)cccc1NC(=O)[C@@H]1C(=O)N(C)C[C@H]1c1cccc(C(C)(C)O)c1 (racemic) : 0

-- ask What value of measured pest or weed control at 15.625 g/ha is listed for CN1C[C@H](c2ccc(C(F)(F)F)cc2)[C@@H](C(=O)Nc2nccc(C(F)(F)F)c2F)C1=O (racemic) ?
-- reply 0

-- ask Find the recorded pest or weed control at 15.625 g/ha belonging to CN1C[C@H](c2cccc(C(C)(C)C#N)c2)[C@@H](C(=O)Nc2ccccc2S(C)(=O)=O)C1=O (racemic) and report it.
-- reply 0

-- ask Need pest or weed control at 15.625 g/ha, item COc1cc(C2CN(C)C(=O)C2C(=O)Nc2cccc(F)c2F)cc(Cl)c1OC (stereo not drawn)
-- reply 0

-- ask Look up pest or weed control at 15.625 g/ha for this molecule: Cc1cccnc1NC(=O)C1C(=O)N(C)CC1c1ccc(C(F)(F)F)cc1 (stereo not drawn)
-- reply 0

-- ask # lookup: pest or weed control at 15.625 g/ha of CN1C[C@@H](c2ccc(C(F)(F)F)cc2)[C@H](C(=O)Nc2cnc(Cl)cn2)C1=O (racemic)
-- reply 0

-- ask # get_value(readout='pest or weed control at 15.625 g/ha', item= CN1C[C@H](c2cccc(C(F)(F)F)c2)[C@@H](C(=O)Nc2ccc(O)cc2F)C1=O (racemic) )
-- reply 0
